Experiment: chemical genetic growth profiling, strain panel (AID 1159580);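 also: tested at 20 µM; growth read once vehicle control cultures reached saturation at 30 °C; 1 = growth at the plate median or of vehicle wells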
Settings: S. cerevisiae deletion strains, growth OD, locus YNL183C, strain NPR1, stronger effect = lower value
Hit rate of the full screen: of about 5,500 compounds, about 2,000 (36%) were called active. Another 18% or so got no clear call; they are omitted. This is one part of the list.
Values of normalized growth strictly less than 0.9 map to 1.0, and values of at least 0.9 map to 0.0.

Report whether reported normalized growth is lower than 0.9 (strictly) for COc1cccc(NC(=S)NC2CC(C)CC(C)(C)C2)c1 (centres undefined)
0.0

Note, next up: CC(C)Cc1ccc(C(C)C(=O)Nc2nn(C)c3ccccc23)cc1 (centres undefined)
0.0

Note, next up: "Fc1ccc(NC(=S)N2CCCN(Cc3ccc(Cl)cc3Cl)CC2)cc1"
0.0

Record: "S=C(NCc1ccccc1)Nc1ccc(Cl)c(Cl)c1"
1.0

Input "N=C(N)SCCN"
0.0

Also check CC(=O)Nc1ccc(OCC(O)CNC(C)C)cc1 (centres undefined)
0.0
